Overview of reported percent inhibition of TGF-beta1 across a group of substances:
Test system: human TGF-beta1 mRNA
protocol-notes: Dose-dependent confirmation of antisense inhibition of human TGF-beta1 in HuVEC cells after large-scale synthesis, Lipofectamine 2000, 0.007-15 nM (Example 5)
Type: cell-based
recorded-conditions: 0.021 nM, Lipofectamine 2000
In the oligonucleotide strings, read from the 5' end, every base follows the letter of its sugar. An asterisk marks phosphorothioate; unmarked linkages are phosphodiester. Other units and linkages are bracketed, terminal groups are in braces. A string of capitals states the bases alone. e = 2'-O-(2-methoxyethyl) (MOE); [5mC] = 5-methylcytosine; d = 2'-deoxy (DNA)
Supply the numeric figure in %, leaving out any unit text.

substance	assay-endpoint	test-result
414040 (antisense e[5mC]*eT*d[5mC]*dT*d[5mC]*dT*d[5mC]*d[5mC]*dA*dT*d[5mC]*dT*dT*dT*dA*eA*eT*eG*eG*eG) [compound 414040]	percent inhibition of TGF-beta1	45
414035 (antisense GTCCTTAAATACAGCCCCCA; sugars from the 5' end e2 d13 e5, backbone and methylation of C not given here) [compound 414035]	percent inhibition of TGF-beta1	26
414036 (antisense GTGTCCTTAAATACAGCCCC; sugars from the 5' end e2 d13 e5, backbone and methylation of C not given here) [compound 414036]	percent inhibition of TGF-beta1	26

[in] Using the record for 413982 (antisense GCCTCCGGCTCCCAGCGGCA; sugars from the 5' end e2 d13 e5, backbone and methylation of C not given here) [compound 413982] , report its percent inhibition of TGF-beta1.
[out] 14

* * *

Overview of reported % inhibition across a group of substances:
Tested on: human TGF-beta1 mRNA
protocol-notes: Antisense inhibition of human TGF-beta1 mRNA in HuVEC cells, single 10 nM dose, Lipofectamine 2000 (Example 2)
Type: cell-based
recorded-conditions: 10 nM oligonucleotide, HuVEC, relative to untreated control cells; gapmers targeted to SEQ ID NO: 2
Method: Antisense oligonucleotides targeted to a TGF-beta1 nucleic acid were tested for their effects on TGF-beta1 mRNA in vitro. […] After a recovery period of approximately 24 hours, RNA was isolated from the cells and TGF-beta1 mRNA levels were measured by quantitative real-time PCR. TGF-beta1 mRNA levels were adjusted according to total RNA content, as measured by RIBOGREEN®. […]
In the oligonucleotide strings, read from the 5' end, every base follows the letter of its sugar. An asterisk marks phosphorothioate; unmarked linkages are phosphodiester. Other units and linkages are bracketed, terminal groups are in braces. A string of capitals states the bases alone. e = 2'-O-(2-methoxyethyl) (MOE); [5mC] = 5-methylcytosine; d = 2'-deoxy (DNA)
Supply the numeric figure in %, leaving out any unit text.

substance	% inhibition / %
414121 (antisense eG*e[5mC]*dA*dA*dT*dG*d[5mC]*dT*dT*dA*dA*dG*dA*d[5mC]*dA*eA*eG*e[5mC]*e[5mC]*eT) [compound 414121]	62
414108 (antisense e[5mC]*eA*d[5mC]*dA*dT*dG*d[5mC]*dA*dA*dT*d[5mC]*d[5mC]*dA*d[5mC]*d[5mC]*eG*eT*eG*eT*eT) [compound 414108]	61
414118 (antisense eA*eA*dT*dG*d[5mC]*d[5mC]*d[5mC]*dA*dA*dG*dT*d[5mC]*d[5mC]*dT*d[5mC]*eA*e[5mC]*e[5mC]*eG*eT) [compound 414118]	73
414068 (antisense eT*e[5mC]*dT*dG*d[5mC]*dA*dA*d[5mC]*dA*dT*d[5mC]*d[5mC]*dA*dA*dA*eA*eT*eA*eG*eT) [compound 414068]	53
414061 (antisense eT*eG*dT*dG*dT*dG*dA*d[5mC]*d[5mC]*dA*dT*dG*dG*dG*d[5mC]*eA*eG*eT*eT*eA) [compound 414061]	69

[in] Using the record for 414080 (antisense eT*eT*dG*dA*d[5mC]*d[5mC]*dA*dA*dG*dA*d[5mC]*dA*dG*dA*dT*eG*eA*eG*e[5mC]*eT) [compound 414080] , report its % inhibition.
[out] 54

[in] Moving on to the next substance: 414090 (antisense eG*eA*dT*dT*d[5mC]*d[5mC]*dA*dA*dT*dG*dT*dT*dT*d[5mC]*dA*eG*e[5mC]*eT*eT*eT) [compound 414090]
[out] 80

[in] Moving on to the next substance: 414106 (antisense eA*eT*dT*d[5mC]*d[5mC]*dT*dT*dG*dA*dT*dA*dT*d[5mC]*dT*dA*eG*eA*eG*eG*eA) [compound 414106]
[out] 74

[in] Moving on to the next substance: 414101 (antisense eG*eA*d[5mC]*dA*dG*d[5mC]*dA*dA*dG*dA*d[5mC]*d[5mC]*dA*dA*d[5mC]*eA*e[5mC]*e[5mC]*eT*eT) [compound 414101]
[out] 70

[in] Moving on to the next substance: 414100 (antisense eT*eT*d[5mC]*d[5mC]*dA*d[5mC]*dT*d[5mC]*dA*dA*dT*dG*dA*dA*dT*eG*eG*eA*eA*eA) [compound 414100]
[out] 48

* * *

Test system: human TGF-beta1 mRNA
protocol-notes: Antisense inhibition of human TGF-beta1 mRNA in HuVEC cells, single 10 nM dose, Lipofectamine 2000 (Example 2)
Assay type: cell-based
recorded-conditions: 10 nM oligonucleotide, HuVEC, relative to untreated control cells; gapmers targeted to SEQ ID NO: 2
In the oligonucleotide strings, read from the 5' end, every base follows the letter of its sugar. An asterisk marks phosphorothioate; unmarked linkages are phosphodiester. Other units and linkages are bracketed, terminal groups are in braces. A string of capitals states the bases alone. e = 2'-O-(2-methoxyethyl) (MOE); [5mC] = 5-methylcytosine; d = 2'-deoxy (DNA)
Decide using % inhibition: a value greater than or equal to 30% is class 1, a smaller one is class 0.

Example results:
substance	cat
414082 (antisense eG*eA*dG*dA*dG*dG*dG*dA*dA*dG*d[5mC]*d[5mC]*dA*dG*dT*e[5mC]*eT*eG*eA*eG) [compound 414082]	class 0
414078 (antisense eT*eG*dG*dG*d[5mC]*dA*dA*dT*dT*dA*dT*dT*dG*dA*dA*eT*eA*eA*eA*eA) [compound 414078]	class 0
414060 (antisense eA*e[5mC]*dA*dG*d[5mC]*dA*dA*dT*dA*dA*d[5mC]*dA*dT*dT*dA*eA*eG*e[5mC]*eT*e[5mC]) [compound 414060]	class 1
414084 (antisense eT*e[5mC]*dA*dG*d[5mC]*d[5mC]*d[5mC]*dA*dA*dG*d[5mC]*dA*d[5mC]*dA*dG*e[5mC]*eA*eG*e[5mC]*eA) [compound 414084]	class 1
414054 (antisense eT*eG*dA*dA*dG*dT*dT*d[5mC]*dA*dT*dT*d[5mC]*dT*dG*dG*eG*eT*eA*eG*eG) [compound 414054]	class 1

# evaluate next
[in] For this substance, is measured % inhibition 30% or higher? 414110 (antisense eG*eA*dA*d[5mC]*dA*dA*dA*dT*dT*dT*dT*d[5mC]*d[5mC]*dT*dA*eT*eG*eA*eA*eA) [compound 414110]
[out] class 0

* * *

Test system: human TGF-beta1 mRNA
protocol-notes: Antisense inhibition of human TGF-beta1 mRNA in HuVEC cells, single 10 nM dose, Lipofectamine 2000 (Example 2)
Type: cell-based
recorded-conditions: 10 nM oligonucleotide, HuVEC, relative to untreated control cells; gapmers targeted to SEQ ID NO: 2
In the oligonucleotide strings, read from the 5' end, every base follows the letter of its sugar. An asterisk marks phosphorothioate; unmarked linkages are phosphodiester. Other units and linkages are bracketed, terminal groups are in braces. A string of capitals states the bases alone. e = 2'-O-(2-methoxyethyl) (MOE); [5mC] = 5-methylcytosine; d = 2'-deoxy (DNA)
Overview of reported % inhibition across a group of substances:
Lab note: write values as number then unit, every time.

substance	test-result
414085 (antisense e[5mC]*eT*dA*dA*dA*dG*dG*dA*dG*dA*d[5mC]*dA*dG*dA*dT*eG*e[5mC]*eT*e[5mC]*eA) [compound 414085]	66%
414111 (antisense eT*eT*dG*dA*dA*d[5mC]*dA*dA*dG*d[5mC]*d[5mC]*dG*dT*d[5mC]*dT*eA*eG*eG*eT*eG) [compound 414111]	81%
414117 (antisense eA*eG*dT*dG*d[5mC]*dA*dA*dT*dA*d[5mC]*dG*dG*dT*dA*dT*eT*eG*e[5mC]*eA*eG) [compound 414117]	81%
414063 (antisense eA*eA*dG*dT*d[5mC]*dG*dA*d[5mC]*dT*dA*dA*dG*dG*d[5mC]*dT*eG*eG*e[5mC]*eA*e[5mC]) [compound 414063]	80%
414064 (antisense eT*eG*dT*dG*dA*d[5mC]*d[5mC]*dT*dT*dG*dA*dG*dG*dA*dA*eG*eT*eG*eG*eT) [compound 414064]	61%

[in] Using the record for 414089 (antisense eA*eA*dT*dT*d[5mC]*dT*dA*dG*d[5mC]*dA*dT*dT*d[5mC]*dT*dA*eG*eA*eA*eT*e[5mC]) [compound 414089] , report its % inhibition.
[out] 18%

[in] Moving on to the next substance: 414114 (antisense eT*eT*dT*d[5mC]*d[5mC]*dA*dA*dG*dA*dG*d[5mC]*d[5mC]*dA*d[5mC]*dA*eG*eA*eA*eG*e[5mC]) [compound 414114]
[out] 46%

[in] Moving on to the next substance: 414097 (antisense eG*eA*dA*dT*d[5mC]*d[5mC]*dA*dA*d[5mC]*dA*dT*dT*dT*d[5mC]*dA*eG*e[5mC]*eT*eT*eT) [compound 414097]
[out] 74%

[in] Moving on to the next substance: 414062 (antisense e[5mC]*e[5mC]*d[5mC]*d[5mC]*dT*dA*dA*dA*dA*dT*dG*d[5mC]*dA*dG*dA*eG*eT*eA*eA*eG) [compound 414062]
[out] 72%

[in] Moving on to the next substance: 414053 (antisense eT*eT*dG*dG*d[5mC]*d[5mC]*d[5mC]*dG*dG*dA*dG*dG*dT*dT*dA*e[5mC]*eT*e[5mC]*eA*eG) [compound 414053]
[out] 52%

[in] Moving on to the next substance: 414056 (antisense eT*eT*dA*dT*dA*d[5mC]*d[5mC]*d[5mC]*dG*dT*dT*dT*dA*dA*dT*eA*eG*eA*eT*eG) [compound 414056]
[out] 41%
